// reported growth inhibition for each item listed
# procedure_details: NCI Yeast Anticancer Drug Screen. Data for the mec2-1 strain (AID 157)
# conditions: S. cerevisiae mec2-1 strain, at 50.0 µM, hits give high values
This is part of a sample that, as a whole, favours compounds with a hit. Of some 79,000 tested, about 15% had one in any assay. Active and inactive are the calls of the source. No stated cut-off is given here; in the data, active means growth inhibition above about 70%; inactive means the rest.

Consider the reported growth inhibition for these compounds:
compound | meas_value
O=C(O[C@H]1[C@@H]2C=CO[C@@H](OC3OC(CO)C(O)C(O)C3O)[C@@H]2[C@@]2(CO)O[C@@H]12)c1ccc(O)c(O)c1 (some centres undefined) | -40% (inactive)
Cc1ncc([N+](=O)[O-])n1CCNC(=O)CCC(=O)NCCCn1ccnc1[N+](=O)[O-] | -22.9% (inactive)
CCCCC1C(=O)N=C2C=CC=CN2C1=O (centres undefined) | -16.9% (inactive)

**Q:** For the compound CC(C)(C)CC(C)(O)COC(=S)S (centres undefined) , give its reported growth inhibition.
**A:** -18% (inactive)

**Q:** For the compound CCCN1CCc2c([nH]c3cc(OC)ccc23)C1C (centres undefined) , give its reported growth inhibition.
**A:** -4.15% (inactive)

**Q:** For the compound COc1ccc(OC)c(NC(=O)NN(C)C)c1 , give its reported growth inhibition.
**A:** -38.8% (inactive)

**Q:** For the compound CCOC(=O)c1cc2c([N+](=O)[O-])cccc2[nH]1 , give its reported growth inhibition.
**A:** -5.9% (inactive)
